TARGET UNDER TEST: biotinylated extracellular domain of the human GIP receptor (bioGIPR) (human) (UniProt P48546)
Sequence (P48546 24-138 limits assumed): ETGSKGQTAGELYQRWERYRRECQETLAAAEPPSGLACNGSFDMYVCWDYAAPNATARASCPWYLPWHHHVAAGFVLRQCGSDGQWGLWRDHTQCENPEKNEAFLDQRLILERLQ
ASSAY NAME: SPR single cycle kinetics, bioGIPR captured on chip; category A: t1/2 >15 min
*1 amine or outer side, *2 acyl side, *3 side chain or, on linkers, in order; H or OH if unused. Bridges are numbered along the chain shown (N, C = ends). [ ]: non-standard residue; d: D form. The star is where a group is joined. Ttds = 1,13-diamino-4,7,10-trioxatridecan-succinamic acid, NCCCOCCOCCOCCCNC(=O)CCC(=O)*; DOTA = O=C(O)CN1CCN(CC(=O)O)CCN(CC(=O)*)CCN(CC(=O)O)CC1; 2Lut = 2,6-lutidylidene bridge between two thiols; Trp(5-Cl) = N[C@@H](Cc1c[nH]c2ccc(Cl)cc12)C(=O)O; APAc = 4-amino-1-carboxymethylpiperidine; mXylylene = c1cc(C[*:1])cc(C[*:2])c1; Hyp = O=C(O)[C@@H]1C[C@@H](O)CN1; Cysteamide = C(CS[*:3])N[*:1]; Suc = O=C(CCC(=O)[*:2])[*:1]; Api = NC1(C(=O)O)CCNCC1
Attribute: t1/2

- Suc-W[Trp(5-Cl)][Hyp]E[dL]C[Api]LIC-{APAc-Lys(DOTA)-NH2} (linker 6-10 via 2Lut) [HO-Succinyl-Trp-5Clw-Hyp-Glu-leu-[Cys(2Lut)-Apc-Leu-Ile-Cys]-APAc-Lys(DOTA)-NH2]: > 15 min

Please look at the following binder next.
For {DOTA-Ttds}-DW[Trp(5-Cl)]PE[dL]C[Api](Ac)LI[Cysteamide] (linker (positions not given here) via mXylylene; not fully specified (bridges); printed as DOTA-Ttds-Asp-Trp-5Clw-Pro-Glu-leu-[Cys(3MeBn)-Apc(Ac)-Leu-Ile-AET]) [DOTA-Ttds-Asp-Trp-5Clw-Pro-Glu-leu-[Cys(3MeBn)-Apc(Ac)-Leu-Ile-AET]] the binder record lists t1/2 as > 15 min

These entries and their values trace back to patent US20250296971A1.
